System: Streptococcus
Assay: GAS UMAA2166 growth inhibition – luminescence, BacTiterGlo, counter-screen for streptokinase expression inhibitor project, dose response (AID 1915);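 note: potency for reduction of bacterial viability or growth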
Format: functional, organism-based
Calls of active or inactive are those of the source.
recordedMetric: EC50

Solved cases below.
compound	EC50
COc1cccc(C(=O)NC(=S)Nc2ccccc2N2CCCCC2)c1	> 150 µM (not active)
CCC(=O)N1NC(=C2C(=O)N(C)C(=O)N(C)C2=O)CC1c1ccccc1 (stereo unspecified)	8.9 µM (active)
Cc1ccc(Cc2cnc(N3C(=N)SC(c4ccccc4)C3=O)s2)cc1 (stereo unspecified)	5.16 µM (active)
Cc1nnc(NC(=O)c2ccc(S(=O)(=O)N(C)Cc3ccccc3)cc2)o1	17 µM (active)
O=C(Nc1ccccc1)c1nnsc1[S+]([O-])c1ccc(Cl)cc1 (stereo unspecified)	3.79 µM (active)

Lab note: next compound to report on.
Form: compound = O=C1C=C(Nc2ccccc2)c2ccccc2C1=O ; EC50 = 8.86 µM (active)

* * *

Target: Luciferin 4-monooxygenase (Photinus pyralis, UniProt P08659)
Sequence (P08659 whole entry): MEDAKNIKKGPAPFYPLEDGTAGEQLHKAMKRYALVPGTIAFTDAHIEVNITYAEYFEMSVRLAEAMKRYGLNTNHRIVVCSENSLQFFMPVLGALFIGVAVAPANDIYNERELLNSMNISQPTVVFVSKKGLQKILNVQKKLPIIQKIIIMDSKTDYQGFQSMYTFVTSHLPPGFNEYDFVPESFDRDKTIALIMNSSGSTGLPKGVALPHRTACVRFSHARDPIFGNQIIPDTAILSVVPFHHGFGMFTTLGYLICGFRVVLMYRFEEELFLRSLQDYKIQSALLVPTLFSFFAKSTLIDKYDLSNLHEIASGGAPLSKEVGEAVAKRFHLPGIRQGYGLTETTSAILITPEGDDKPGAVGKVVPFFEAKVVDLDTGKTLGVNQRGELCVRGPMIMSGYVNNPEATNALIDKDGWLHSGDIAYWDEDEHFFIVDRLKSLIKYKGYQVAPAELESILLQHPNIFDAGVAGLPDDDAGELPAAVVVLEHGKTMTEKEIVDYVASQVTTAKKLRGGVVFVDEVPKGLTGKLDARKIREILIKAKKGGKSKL
Test: inhibition of purified Photinus pyralis luciferase – biochemical, luminescence, dose response (AID 1891)
Calls of active or inactive are those of the source.
EC50 values, listed per item

molecule	EC50
CC(C)OCCCNCC(O)c1ccccc1 (configuration not stated)	> 112 µM (not active)
CCn1nnnc1SCC(=O)NC1CCCC1	> 112 µM (not active)
COc1ccccc1C(=O)Nc1nc2ccccc2s1	0.296 µM (active)

Form: molecule = CCOC(=O)Cc1ccc2sc(-c3ccccc3)nc2c1 ; EC50 = 1.54 µM (active)

Form: molecule = Cn1ccnc1SCC(=O)Nc1ccc2c(c1)OC(F)(F)O2 ; EC50 = > 112 µM (not active)

* * *

Biological target: Short transient receptor potential channel 4 (Mus musculus, UniProt Q9QUQ5)
Assay: calcium entry via TRPC4 opening agents – cell-based, HEK293 TRPC4/mu-opioid, Fluo-4 calcium, dose response (AID 434937)
Assay type: functional
The source made the active and inactive calls.
recordedMetric: EC50

molecule	assaySystem	recordedMetric	result
O=c1c2cc(Br)ccc2nc(-c2cccc(C(F)(F)F)c2)n1O	Short transient receptor potential channel 4 (Mus musculus, UniProt Q9QUQ5)	EC50	5.96 µM (active)

Tested on Short transient receptor potential channel 4 (Mus musculus, UniProt Q9QUQ5): Cc1ccccc1C(=O)NNC(=S)NC(=O)c1ccccc1 . Observed EC50: 2.11 µM (active)

Tested on Short transient receptor potential channel 4 (Mus musculus, UniProt Q9QUQ5): COC(=O)c1ccc(N2CCN(C)CC2)c(NC(=O)c2ccc(Br)o2)c1 . Observed EC50: 5.96 µM (active)

Tested on Short transient receptor potential channel 4 (Mus musculus, UniProt Q9QUQ5): COc1ccccc1C(=O)NNC(=S)NC(=O)c1cccs1 . Observed EC50: 6.68 µM (active)

Tested on Short transient receptor potential channel 4 (Mus musculus, UniProt Q9QUQ5): CCN(CC)c1ccc(/C=C/[N+](=O)[O-])cc1 . Observed EC50: 2.99 µM (active)

Tested on Short transient receptor potential channel 4 (Mus musculus, UniProt Q9QUQ5): COc1ccc(CC(=O)NCC(c2ccc(OC)cc2)N(C)C)cc1 (stereo unspecified) . Observed EC50: 0.668 µM (active)

* * *

Molecular target: Peroxisome proliferator-activated receptor gamma/Nuclear receptor coactivator 2 (Homo sapiens);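 note: agonist potency for raising coactivator recruitment to the receptor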
Sequence (P37231 whole entry): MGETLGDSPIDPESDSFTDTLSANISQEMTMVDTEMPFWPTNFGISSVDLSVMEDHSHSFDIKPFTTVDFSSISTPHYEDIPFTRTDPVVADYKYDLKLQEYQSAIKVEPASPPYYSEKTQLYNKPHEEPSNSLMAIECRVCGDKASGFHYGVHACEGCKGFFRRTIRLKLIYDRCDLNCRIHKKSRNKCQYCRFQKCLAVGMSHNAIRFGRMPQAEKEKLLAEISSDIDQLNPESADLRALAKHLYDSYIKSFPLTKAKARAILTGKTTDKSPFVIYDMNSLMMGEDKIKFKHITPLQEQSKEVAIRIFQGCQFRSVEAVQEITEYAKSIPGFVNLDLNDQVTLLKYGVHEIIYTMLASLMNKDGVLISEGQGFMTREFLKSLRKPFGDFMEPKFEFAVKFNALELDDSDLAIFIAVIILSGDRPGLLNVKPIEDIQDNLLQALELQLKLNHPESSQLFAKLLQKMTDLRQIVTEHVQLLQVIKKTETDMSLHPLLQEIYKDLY
Sequence (Q15596 whole entry, further chain): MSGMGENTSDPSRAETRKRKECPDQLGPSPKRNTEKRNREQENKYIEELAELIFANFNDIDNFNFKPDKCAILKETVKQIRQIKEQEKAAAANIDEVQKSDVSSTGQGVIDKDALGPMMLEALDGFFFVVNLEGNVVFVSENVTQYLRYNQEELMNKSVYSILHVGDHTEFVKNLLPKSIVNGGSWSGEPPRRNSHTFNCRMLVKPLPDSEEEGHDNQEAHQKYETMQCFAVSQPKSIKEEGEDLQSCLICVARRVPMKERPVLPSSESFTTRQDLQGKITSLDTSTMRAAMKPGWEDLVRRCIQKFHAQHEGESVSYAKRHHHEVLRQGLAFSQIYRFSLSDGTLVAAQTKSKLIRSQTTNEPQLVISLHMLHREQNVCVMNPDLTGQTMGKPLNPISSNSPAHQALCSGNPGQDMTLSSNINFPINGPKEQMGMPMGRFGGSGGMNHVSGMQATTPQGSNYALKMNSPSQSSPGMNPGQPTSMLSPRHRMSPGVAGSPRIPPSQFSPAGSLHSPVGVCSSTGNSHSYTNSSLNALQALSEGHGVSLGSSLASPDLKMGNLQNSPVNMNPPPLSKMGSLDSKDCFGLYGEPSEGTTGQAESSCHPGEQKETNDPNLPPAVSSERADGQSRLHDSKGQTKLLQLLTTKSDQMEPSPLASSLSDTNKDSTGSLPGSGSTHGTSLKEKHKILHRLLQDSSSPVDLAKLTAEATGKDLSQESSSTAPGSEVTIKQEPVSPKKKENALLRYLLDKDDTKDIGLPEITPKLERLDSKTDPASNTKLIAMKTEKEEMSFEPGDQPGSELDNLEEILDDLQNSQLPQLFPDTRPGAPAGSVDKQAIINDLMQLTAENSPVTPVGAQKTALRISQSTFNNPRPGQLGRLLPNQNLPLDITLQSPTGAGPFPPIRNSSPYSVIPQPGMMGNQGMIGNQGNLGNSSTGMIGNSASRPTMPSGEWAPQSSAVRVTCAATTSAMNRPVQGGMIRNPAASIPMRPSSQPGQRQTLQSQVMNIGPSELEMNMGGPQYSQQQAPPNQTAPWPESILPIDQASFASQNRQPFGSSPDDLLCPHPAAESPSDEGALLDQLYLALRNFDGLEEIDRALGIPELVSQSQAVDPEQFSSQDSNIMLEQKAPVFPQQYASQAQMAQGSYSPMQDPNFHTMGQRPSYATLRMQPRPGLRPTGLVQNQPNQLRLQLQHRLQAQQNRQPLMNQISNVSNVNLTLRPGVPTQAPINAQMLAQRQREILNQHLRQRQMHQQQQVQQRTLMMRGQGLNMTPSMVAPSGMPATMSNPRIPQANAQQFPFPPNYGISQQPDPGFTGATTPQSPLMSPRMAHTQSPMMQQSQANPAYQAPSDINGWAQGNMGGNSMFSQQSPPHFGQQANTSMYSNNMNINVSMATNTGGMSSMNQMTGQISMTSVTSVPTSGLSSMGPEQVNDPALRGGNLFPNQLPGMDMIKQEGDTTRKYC
Assay type: functional
recordedMetric: EC50

molecule	result
CCOC(=O)C1=NN(c2cccc(Cl)c2)C2=NC(C)=C(C(=O)OC)C(c3cccs3)N12 (centres undefined)	> 79.4 µM (not active)
N#Cc1cc2c(nc1SCc1ccccc1)CCC2	45.2 µM (not active)
O=C(CSc1cccc2cccnc12)N/N=C/c1cccnc1	> 79.4 µM (not active)

Lab note: next molecule to report on.
Form: molecule = COc1cc(C2CC(=O)N3CN(Cc4ccccc4)CSC3=C2C#N)ccc1OCc1ccccc1 (centres undefined) ; EC50 = > 79.4 µM (not active)

* * *

Target: Histone-lysine N-methyltransferase NSD2 (Homo sapiens, UniProt O96028)
Sequence (O96028 whole entry): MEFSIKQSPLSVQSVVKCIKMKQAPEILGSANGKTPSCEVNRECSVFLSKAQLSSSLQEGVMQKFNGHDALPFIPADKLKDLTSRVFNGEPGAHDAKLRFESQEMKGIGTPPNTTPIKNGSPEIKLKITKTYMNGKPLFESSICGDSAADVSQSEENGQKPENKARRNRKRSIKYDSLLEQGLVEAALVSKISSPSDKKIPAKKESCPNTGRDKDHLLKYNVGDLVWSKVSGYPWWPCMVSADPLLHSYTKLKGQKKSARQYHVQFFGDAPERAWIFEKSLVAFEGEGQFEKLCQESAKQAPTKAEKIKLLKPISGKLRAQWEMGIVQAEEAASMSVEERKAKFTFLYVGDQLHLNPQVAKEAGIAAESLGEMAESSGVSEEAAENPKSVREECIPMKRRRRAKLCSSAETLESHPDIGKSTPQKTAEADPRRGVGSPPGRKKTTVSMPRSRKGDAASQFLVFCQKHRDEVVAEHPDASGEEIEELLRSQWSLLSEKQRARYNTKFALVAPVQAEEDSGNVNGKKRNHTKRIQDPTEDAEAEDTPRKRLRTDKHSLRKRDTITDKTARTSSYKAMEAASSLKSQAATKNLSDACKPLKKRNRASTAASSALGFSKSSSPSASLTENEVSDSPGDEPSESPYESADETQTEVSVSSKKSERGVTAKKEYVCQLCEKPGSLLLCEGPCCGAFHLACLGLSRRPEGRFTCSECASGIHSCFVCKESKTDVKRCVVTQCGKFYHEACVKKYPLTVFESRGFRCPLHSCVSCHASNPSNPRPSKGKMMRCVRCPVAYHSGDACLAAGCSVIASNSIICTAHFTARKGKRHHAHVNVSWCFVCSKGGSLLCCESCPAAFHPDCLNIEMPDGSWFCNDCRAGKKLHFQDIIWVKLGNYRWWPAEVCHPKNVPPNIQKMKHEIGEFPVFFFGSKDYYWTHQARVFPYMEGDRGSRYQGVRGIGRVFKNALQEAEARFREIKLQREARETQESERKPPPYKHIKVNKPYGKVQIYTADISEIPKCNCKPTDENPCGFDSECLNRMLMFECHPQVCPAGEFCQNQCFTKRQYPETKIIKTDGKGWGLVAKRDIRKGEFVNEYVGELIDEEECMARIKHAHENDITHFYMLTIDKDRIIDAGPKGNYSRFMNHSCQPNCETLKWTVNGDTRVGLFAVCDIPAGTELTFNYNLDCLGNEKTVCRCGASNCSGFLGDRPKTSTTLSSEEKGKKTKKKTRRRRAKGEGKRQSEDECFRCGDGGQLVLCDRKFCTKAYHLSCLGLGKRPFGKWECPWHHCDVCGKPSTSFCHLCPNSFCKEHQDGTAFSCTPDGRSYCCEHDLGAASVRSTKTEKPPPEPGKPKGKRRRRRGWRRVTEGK
Assay type: biochemical
Calls of active or inactive are those of the source.
The categories you may choose from are active, inactive

See these solved cases before continuing.
compound	labelValue
O=C(/C=C/c1ccc(O)c(O)c1)c1ccccc1O	inactive
COc1ccc(OC)c(/C=C2\SC(=S)N(NS(=O)(=O)c3ccc(C)cc3)C2=O)c1	active
CC1OC(Nc2cccc3ccccc23)C(O)C(O)C1O (stereo unspecified)	active
O=C1C=C(Nc2cccnc2)c2ccccc2C1=O	active
COc1cc(/C=C/[N+](=O)[O-])ccc1OCc1cccc(C(=O)O)c1	active

Task: What was the test verdict on O=C(O)c1cccc(-n2cccc2/C=C2/SC(=O)N(CC(=O)N3CCCC3)C2=O)c1 ?
Output: inactive

* * *

Target: Apoptotic protease-activating factor 1 (Homo sapiens, UniProt O14727)
Sequence (O14727 whole entry): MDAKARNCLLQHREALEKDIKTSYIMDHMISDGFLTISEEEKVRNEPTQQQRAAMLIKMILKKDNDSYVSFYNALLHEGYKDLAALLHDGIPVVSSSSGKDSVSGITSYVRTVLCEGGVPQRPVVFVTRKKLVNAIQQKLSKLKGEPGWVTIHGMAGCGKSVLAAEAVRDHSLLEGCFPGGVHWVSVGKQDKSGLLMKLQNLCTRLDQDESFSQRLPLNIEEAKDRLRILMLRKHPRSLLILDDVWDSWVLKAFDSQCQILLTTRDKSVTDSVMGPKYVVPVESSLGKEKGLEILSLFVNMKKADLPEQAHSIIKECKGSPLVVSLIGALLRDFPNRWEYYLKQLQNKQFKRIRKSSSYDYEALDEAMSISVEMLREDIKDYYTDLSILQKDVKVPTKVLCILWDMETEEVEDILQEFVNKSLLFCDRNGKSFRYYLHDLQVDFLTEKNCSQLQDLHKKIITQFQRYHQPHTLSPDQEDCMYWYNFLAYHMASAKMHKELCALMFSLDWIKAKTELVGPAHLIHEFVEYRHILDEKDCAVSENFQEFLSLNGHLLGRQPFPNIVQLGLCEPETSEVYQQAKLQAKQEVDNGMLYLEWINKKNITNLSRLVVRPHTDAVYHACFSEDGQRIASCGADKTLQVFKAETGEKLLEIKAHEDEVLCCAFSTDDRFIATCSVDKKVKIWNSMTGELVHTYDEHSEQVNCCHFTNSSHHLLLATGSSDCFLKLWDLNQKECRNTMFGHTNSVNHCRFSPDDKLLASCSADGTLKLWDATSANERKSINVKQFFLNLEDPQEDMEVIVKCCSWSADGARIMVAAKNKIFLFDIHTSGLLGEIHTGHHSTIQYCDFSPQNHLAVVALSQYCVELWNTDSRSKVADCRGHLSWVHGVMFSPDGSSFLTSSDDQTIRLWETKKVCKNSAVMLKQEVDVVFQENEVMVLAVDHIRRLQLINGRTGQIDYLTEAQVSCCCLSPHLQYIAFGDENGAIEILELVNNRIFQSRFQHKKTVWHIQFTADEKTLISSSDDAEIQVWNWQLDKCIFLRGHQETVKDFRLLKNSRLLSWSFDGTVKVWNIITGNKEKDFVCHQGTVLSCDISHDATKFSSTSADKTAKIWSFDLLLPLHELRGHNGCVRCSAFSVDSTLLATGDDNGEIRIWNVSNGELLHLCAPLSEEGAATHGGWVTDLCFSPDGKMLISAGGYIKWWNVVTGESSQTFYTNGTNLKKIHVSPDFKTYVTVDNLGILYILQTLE
Format: functional
Calls of active or inactive are those of the source.
IC50 values, listed per item

Form: compound = O=C1C=C(Nc2ccccc2)c2ccccc2C1=O ; IC50 = 2.23 µM (active)

Form: compound = CC1OC(Nc2cccc3ccccc23)C(O)C(O)C1O (centres undefined) ; IC50 = 14.8 µM (active)

Form: compound = COc1ccc(C(CNC(=O)COc2c(C)cc(C)cc2C)N2CCOCC2)cc1 (centres undefined) ; IC50 = > 100 µM (inactive)

Form: compound = Cc1oc2c(c1C(=O)O)C(=O)c1ccccc1C2=O ; IC50 = 11.4 µM (active)

* * *

Molecular target: Methionyl-tRNA synthetase, putative (Trypanosoma brucei brucei, UniProt Q38C91);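 note: Read-out by fluorescence polarization, run as a confirmatory high-throughput counterscreen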;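 note: potency of MetRS inhibitors measured by reduced AMP formation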
Sequence (Q38C91 whole entry): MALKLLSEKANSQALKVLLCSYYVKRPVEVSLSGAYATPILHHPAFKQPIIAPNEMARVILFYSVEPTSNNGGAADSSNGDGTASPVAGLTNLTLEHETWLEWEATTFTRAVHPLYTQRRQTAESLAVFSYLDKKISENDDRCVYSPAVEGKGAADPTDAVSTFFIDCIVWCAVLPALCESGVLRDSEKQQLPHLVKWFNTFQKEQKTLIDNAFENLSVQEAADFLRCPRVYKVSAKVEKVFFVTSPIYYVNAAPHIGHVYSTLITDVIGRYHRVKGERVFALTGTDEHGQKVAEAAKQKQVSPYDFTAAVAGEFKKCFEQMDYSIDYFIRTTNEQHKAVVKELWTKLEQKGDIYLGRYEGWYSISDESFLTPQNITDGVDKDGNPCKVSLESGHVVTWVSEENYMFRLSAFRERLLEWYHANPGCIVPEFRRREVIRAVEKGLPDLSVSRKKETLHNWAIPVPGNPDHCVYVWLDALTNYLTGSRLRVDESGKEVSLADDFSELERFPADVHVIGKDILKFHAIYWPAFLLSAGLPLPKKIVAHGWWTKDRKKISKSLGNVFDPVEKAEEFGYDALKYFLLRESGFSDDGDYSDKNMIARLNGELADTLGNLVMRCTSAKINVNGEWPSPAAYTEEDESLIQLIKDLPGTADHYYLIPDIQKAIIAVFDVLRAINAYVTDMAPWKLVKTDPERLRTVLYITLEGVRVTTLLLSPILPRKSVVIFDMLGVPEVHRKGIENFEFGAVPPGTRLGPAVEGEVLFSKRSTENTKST
Assay type: functional, Trypanosoma brucei brucei strain 927/4 GUTat10.1
The source made the active and inactive calls.
The categories you may choose from are active, inactive

See these solved cases before continuing.
compound	labelValue
O=C(NCC(O)COc1ccc([N+](=O)[O-])cc1)Nc1ccccc1 (centres undefined)	inactive
O=C(NNC(=O)c1ccc(-n2cncn2)c([N+](=O)[O-])c1)c1ccc(Cl)cc1	active
COc1ccccc1-c1c[nH]c(C(O)c2cc(Cl)cc(Cl)c2)n1 (centres undefined)	active

Now for a further compound.
Task: What was the test verdict on O=C(CCC(=O)Nc1cccc([N+](=O)[O-])c1)N/N=C/c1cccs1 ?
Output: active

* * *

Biological target: Caspase-3 (Homo sapiens, UniProt P42574);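 note: Dose-response selectivity test against caspase-3 for candidate inhibitors of sentrin-specific proteases (SENPs)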
Format: functional
Calls of active or inactive are those of the source.
recordedMetric: IC50

Solved cases below.
molecule	IC50
CC1OC(Nc2cccc3ccccc23)C(O)C(O)C1O (stereo unspecified)	9.4 µM (active)
Cc1ccc(NC(=O)c2oc3ccccc3c2C)nc1	25.8 µM (active)
O=C1/C(=C/c2ccc([N+](=O)[O-])cc2)CCc2ccccc21	5.9 µM (active)
O=C1C=C(Nc2ccccc2)c2ccccc2C1=O	18.6 µM (active)
Cc1cc(-c2csc(Nc3ccccn3)n2)ccc1F	26 µM (active)

Lab note: next molecule to report on.
Form: molecule = O=c1cc(-c2ccc(O)cc2)oc2ccc(O)cc12 ; IC50 = 16.8 µM (active)
